# test.system: type 2 ryanodine receptor (Mus musculus, UniProt E9Q401)
# Sequence (E9Q401 whole entry): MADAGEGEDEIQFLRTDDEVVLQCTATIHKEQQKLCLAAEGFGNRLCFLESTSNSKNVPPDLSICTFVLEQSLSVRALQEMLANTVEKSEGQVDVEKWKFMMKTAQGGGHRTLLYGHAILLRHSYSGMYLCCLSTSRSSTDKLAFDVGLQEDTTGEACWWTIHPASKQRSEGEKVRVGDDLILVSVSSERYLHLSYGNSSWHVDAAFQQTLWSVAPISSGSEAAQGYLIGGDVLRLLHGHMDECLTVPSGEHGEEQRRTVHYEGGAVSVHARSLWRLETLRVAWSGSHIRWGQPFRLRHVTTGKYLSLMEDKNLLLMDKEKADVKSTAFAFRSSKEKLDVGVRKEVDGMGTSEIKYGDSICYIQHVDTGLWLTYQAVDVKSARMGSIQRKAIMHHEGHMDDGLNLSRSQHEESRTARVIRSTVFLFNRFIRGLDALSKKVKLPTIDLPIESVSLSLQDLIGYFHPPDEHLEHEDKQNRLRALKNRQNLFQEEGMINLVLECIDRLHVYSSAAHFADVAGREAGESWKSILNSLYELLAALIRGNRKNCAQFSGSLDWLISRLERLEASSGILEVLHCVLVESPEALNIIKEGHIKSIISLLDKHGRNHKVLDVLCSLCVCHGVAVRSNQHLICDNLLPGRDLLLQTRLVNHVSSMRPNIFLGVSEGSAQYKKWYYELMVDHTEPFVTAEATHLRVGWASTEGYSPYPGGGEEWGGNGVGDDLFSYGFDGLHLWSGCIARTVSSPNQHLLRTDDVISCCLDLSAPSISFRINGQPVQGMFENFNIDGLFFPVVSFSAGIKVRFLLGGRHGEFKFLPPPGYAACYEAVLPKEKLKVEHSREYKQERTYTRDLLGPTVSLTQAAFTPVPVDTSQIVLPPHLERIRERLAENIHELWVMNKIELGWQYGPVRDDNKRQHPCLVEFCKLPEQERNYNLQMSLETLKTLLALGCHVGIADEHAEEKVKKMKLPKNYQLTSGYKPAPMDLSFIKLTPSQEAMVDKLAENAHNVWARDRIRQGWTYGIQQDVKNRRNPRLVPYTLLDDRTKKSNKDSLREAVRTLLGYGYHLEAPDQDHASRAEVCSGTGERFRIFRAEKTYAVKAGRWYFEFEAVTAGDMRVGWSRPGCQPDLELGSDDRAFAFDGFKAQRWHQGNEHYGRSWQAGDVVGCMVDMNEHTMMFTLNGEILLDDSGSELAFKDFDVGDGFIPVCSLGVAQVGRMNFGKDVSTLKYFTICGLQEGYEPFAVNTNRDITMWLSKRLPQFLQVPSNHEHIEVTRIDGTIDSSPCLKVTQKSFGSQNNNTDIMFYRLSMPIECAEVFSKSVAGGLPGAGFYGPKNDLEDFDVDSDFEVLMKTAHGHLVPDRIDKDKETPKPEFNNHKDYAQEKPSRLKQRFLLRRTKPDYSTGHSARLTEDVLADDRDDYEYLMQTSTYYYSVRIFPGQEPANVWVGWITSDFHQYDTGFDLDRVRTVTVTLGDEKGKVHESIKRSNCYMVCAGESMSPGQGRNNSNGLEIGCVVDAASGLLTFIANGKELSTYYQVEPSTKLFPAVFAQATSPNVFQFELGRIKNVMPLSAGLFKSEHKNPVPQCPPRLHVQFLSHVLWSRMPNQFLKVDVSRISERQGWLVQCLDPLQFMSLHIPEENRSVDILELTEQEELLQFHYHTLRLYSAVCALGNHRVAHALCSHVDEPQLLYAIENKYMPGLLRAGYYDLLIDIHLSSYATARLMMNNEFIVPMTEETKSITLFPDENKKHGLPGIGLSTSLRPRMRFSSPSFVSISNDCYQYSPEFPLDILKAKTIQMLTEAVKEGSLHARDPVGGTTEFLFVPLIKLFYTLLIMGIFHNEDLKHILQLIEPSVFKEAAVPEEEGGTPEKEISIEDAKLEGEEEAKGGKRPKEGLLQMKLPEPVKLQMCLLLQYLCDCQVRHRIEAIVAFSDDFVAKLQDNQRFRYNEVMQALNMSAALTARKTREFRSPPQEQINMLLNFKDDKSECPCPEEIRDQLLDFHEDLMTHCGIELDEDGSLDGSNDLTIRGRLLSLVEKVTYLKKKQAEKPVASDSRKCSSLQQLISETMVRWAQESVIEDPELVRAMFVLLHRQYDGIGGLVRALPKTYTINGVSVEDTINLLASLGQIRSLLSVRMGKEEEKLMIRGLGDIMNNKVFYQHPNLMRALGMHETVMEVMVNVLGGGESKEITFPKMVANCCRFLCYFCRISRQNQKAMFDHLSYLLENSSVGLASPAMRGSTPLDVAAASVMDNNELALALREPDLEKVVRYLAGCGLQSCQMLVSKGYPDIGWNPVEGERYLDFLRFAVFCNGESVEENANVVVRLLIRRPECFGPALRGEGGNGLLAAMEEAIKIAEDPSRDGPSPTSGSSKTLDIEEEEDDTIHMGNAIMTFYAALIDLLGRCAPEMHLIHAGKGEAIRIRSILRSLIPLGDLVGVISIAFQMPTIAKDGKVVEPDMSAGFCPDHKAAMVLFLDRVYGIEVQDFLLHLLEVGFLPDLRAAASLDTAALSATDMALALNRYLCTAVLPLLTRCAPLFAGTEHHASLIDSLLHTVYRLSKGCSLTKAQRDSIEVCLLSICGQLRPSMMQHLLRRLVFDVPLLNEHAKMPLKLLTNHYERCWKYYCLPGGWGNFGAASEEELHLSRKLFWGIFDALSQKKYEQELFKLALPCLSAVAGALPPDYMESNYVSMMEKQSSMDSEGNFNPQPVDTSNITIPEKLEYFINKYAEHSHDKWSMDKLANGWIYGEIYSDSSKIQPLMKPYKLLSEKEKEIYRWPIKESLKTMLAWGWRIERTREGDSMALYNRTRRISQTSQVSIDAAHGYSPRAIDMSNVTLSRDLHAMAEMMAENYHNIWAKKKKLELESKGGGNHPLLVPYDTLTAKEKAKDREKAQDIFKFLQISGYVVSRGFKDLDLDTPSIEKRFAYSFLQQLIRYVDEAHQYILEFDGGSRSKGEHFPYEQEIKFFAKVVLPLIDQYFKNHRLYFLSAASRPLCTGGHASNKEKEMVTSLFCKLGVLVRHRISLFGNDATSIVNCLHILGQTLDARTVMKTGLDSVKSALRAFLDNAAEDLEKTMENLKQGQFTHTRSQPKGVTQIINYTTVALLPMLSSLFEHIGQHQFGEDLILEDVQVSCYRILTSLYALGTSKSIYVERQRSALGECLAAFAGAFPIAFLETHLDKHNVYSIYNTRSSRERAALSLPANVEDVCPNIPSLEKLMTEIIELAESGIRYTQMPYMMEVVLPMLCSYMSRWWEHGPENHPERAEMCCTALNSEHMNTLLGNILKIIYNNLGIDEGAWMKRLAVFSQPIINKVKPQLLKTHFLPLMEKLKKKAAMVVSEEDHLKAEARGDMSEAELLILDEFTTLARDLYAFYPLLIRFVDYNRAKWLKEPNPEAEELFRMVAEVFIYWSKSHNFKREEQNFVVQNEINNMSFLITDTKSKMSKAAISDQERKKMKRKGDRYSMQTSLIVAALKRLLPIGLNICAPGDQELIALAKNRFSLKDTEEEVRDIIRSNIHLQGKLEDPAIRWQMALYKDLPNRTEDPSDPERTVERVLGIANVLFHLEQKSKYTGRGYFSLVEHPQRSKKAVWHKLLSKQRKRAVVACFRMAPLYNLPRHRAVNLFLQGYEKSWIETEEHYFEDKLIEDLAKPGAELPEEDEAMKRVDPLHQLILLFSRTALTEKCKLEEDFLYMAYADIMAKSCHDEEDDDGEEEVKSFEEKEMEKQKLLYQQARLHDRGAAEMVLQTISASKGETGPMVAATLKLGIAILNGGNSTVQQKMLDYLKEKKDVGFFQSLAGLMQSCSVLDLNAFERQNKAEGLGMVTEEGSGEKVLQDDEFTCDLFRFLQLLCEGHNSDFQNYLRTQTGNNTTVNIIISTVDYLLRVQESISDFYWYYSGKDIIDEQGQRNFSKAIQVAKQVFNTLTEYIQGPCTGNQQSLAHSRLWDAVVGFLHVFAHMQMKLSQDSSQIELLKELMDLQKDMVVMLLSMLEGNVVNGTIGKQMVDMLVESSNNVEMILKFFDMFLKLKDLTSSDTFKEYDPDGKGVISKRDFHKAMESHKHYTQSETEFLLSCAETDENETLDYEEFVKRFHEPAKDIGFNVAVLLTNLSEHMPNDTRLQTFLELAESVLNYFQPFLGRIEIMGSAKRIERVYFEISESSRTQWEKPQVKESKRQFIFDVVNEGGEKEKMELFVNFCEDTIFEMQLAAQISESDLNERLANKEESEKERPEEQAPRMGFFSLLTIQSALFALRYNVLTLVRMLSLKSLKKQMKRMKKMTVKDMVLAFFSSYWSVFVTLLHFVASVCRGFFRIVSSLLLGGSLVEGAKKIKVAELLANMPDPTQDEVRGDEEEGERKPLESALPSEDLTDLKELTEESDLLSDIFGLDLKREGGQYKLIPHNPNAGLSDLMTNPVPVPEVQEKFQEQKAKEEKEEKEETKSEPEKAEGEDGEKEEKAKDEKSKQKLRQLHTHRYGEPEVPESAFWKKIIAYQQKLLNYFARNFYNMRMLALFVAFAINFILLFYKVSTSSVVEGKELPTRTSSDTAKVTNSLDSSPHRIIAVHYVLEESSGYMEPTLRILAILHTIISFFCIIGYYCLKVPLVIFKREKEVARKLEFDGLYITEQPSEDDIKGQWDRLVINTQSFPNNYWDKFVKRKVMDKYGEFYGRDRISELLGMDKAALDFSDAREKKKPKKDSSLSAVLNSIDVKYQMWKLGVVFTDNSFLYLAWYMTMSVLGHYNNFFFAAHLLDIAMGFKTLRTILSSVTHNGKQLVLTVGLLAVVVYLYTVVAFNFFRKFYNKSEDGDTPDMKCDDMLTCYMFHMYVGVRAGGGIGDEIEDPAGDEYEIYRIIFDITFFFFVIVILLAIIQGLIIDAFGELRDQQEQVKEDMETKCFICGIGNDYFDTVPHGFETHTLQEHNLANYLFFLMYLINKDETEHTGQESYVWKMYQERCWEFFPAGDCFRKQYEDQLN
# protocol.details: type 2 ryanodine receptor activity inhibitory effect: endoplasmic reticulum Ca2+ (R-CEPIA1er fluorescence) in RyR-expressing HEK293 cells
# condition.details: final concentration 10^-9 to 10^-4 M; Hill equation fit; ER Ca2+ fluorescence in HEK293 cells
reported.endpoint: EC50 (nM)

CCN(C(=O)Cn1nnc(-c2ccc(OC(F)(F)F)cc2)n1)c1ccc(F)cc1 [Compound 63]    1050
COc1cccc(-c2nnn(CC(=O)N(C)c3ccc(F)cc3)n2)c1 [Compound 49]    44
CN(C(=O)Cn1nnc(-c2cc(F)cc(F)c2)n1)c1ccc(F)cc1 [Compound 57]    15

(I) CN(C(=O)Cn1nnc(-c2ccccc2)n1)c1ccccc1 [Compound 35]
(II) COc1cccc(-c2nnn(CC(=O)N(C)c3ccc(F)c(OC)c3)n2)c1 [Compound 53]
(III) COc1ccccc1-c1nnn(CC(=O)N(C)c2ccccc2)n1 [Compound 45]
(IV) CCCN(C(=O)Cn1nnc(-c2ccccc2)n1)c1ccccc1 [Compound 66]
Lookup: Which order do these items take when sorted by rising EC50? List them. Provide the ranking by listing each label in its place in the requested order.
Found: II, I, III, IV

(P) CN(C(=O)Cn1nnc(-c2cccc(F)c2)n1)c1ccc(F)cc1 [Compound 51]
(Q) CN(C(=S)Cn1nnc(-c2cccc(F)c2)n1)c1ccc(F)cc1 [Compound 70]
(R) CCN(C(=O)Cn1nnc(-c2ccccc2)n1)c1ccc(F)cc1 [Compound 60]
(S) CCN(C(=O)Cn1nnc(-c2ccc(OC)cc2)n1)c1ccc(OC)cc1 [Compound 62]
(T) CCN(C(=O)Cn1nnc(-c2ccccc2)n1)c1ccc(OC(F)(F)F)cc1 [Compound 61]
Lookup: Hey, can you sort those compounds up there by EC50, smallest first? Please list the labels in the order you were asked to rank them.
Found: Q, P, R, S, T
(Q: 33 nM, P: 49 nM, R: 768 nM, S: 2680 nM, T: 44200 nM)

(I) COc1ccc(N(C)C(=O)Cn2nnc(-c3cccc(F)c3)n2)cc1 [Compound 50]
(II) Cc1ccc(N(C)C(=O)Cn2nnc(-c3ccccc3)n2)cc1 [Compound 38]
Lookup: Lab note: check whether I or II shows the higher recorded EC50. Pick one; state its label.
Found: II

(P) COc1cccc(-c2nnn(CC(=S)N(C)c3ccc(F)cc3)n2)c1 [Compound 68]
(Q) COc1cccc(-c2nnn(CC(=O)N(C)c3ccc4c(c3)OCO4)n2)c1 [Compound 54]
Lookup: Record comparison, field EC50: mark the lower of P and Q . Field: selected label. Fill in the label of the entry you choose.
Found: P
(P: 31 nM, Q: 48 nM)

(1) COc1ccc(N(C)C(=S)Cn2nnc(-c3cccc(OC)c3)n2)cc1 [Compound 67]
(2) COc1cccc(N(C)C(=O)Cn2nnc(-c3ccccc3)n2)c1 [Compound 40]
Lookup: I'm curious, which of these has a smaller EC50 number: 1 or 2 ? Lab note: record the label of whichever item you select.
Found: 1

(I) CCN(C(=O)Cn1nnc(-c2ccccc2)n1)c1ccccc1 [Compound 58]
(II) COc1cccc(-c2nnn(CC(=O)N(C)c3ccccc3)n2)c1 [Compound 46]
Lookup: // compare measured EC50 between I and II ; output the lower one Selection: enter the item's label.
Found: II
